Tested on: MvaT
Test: PBM 8-mer E-score (mean of HK and ME arrays) (E-score (dimensionless, -0.5 to 0.5)); higher = stronger relative binding preference
Over roughly 33,000 sequences, “E-score (dimensionless, -0.5 to 0.5)” has its median near -0.058; the highest 2% begin near 0.35. This excerpt belongs to a sample that is enriched for the highest values.
Documented PBM 8-mer E-score across a set of sequences

Previously resolved entries follow.
entry_sequence=AAACTAAA assay_system=MvaT test_value=0.357
entry_sequence=AATTATGG assay_system=MvaT test_value=0.285
entry_sequence=ATATTAGA assay_system=MvaT test_value=0.407

PBM 8-mer E-score measured on CTATTAGA = 0.208

PBM 8-mer E-score measured on AATAAAAA = 0.415

PBM 8-mer E-score measured on AAATACTC = 0.207

* * *

Documented PBM 8-mer E-score across a set of sequences
System: MvaT
Assay: PBM 8-mer E-score (mean of HK and ME arrays) (E-score (dimensionless, -0.5 to 0.5)); higher = stronger relative binding preference
Whole data set: some 33,000 sequences, median “E-score (dimensionless, -0.5 to 0.5)” near -0.058, cut for the highest 2% near 0.35. Only a selection was taken, and the highest values are over-represented in it overall.
Number only, please.

entry_sequence=CCAATAAA assay_system=MvaT test_value=0.302
entry_sequence=ACTGATAA assay_system=MvaT test_value=0.209

PBM 8-mer E-score measured on AGCACAGG = -0.197

PBM 8-mer E-score measured on CGTTAGCA = -0.0988

PBM 8-mer E-score measured on ACAATAAC = 0.324

PBM 8-mer E-score measured on TACCAAGA = -0.0377

PBM 8-mer E-score measured on AATTGAGA = 0.0559

PBM 8-mer E-score measured on AACATCAT = 0.171

PBM 8-mer E-score measured on CTAATTAG = 0.35

PBM 8-mer E-score measured on ATGGCCAG = -0.256

PBM 8-mer E-score measured on ACAATAAT = 0.401

PBM 8-mer E-score measured on CTAATTAC = 0.322

PBM 8-mer E-score measured on GCCCCACC = -0.292

PBM 8-mer E-score measured on AGACGCGA = 0.0502

PBM 8-mer E-score measured on CCACCTCG = -0.129

PBM 8-mer E-score measured on ATTTTAAA = 0.383

PBM 8-mer E-score measured on ATAATTAT = 0.467

PBM 8-mer E-score measured on ATTCGGTG = -0.00558

* * *

Test system: MvaT
Experiment: PBM 8-mer E-score (mean of HK and ME arrays) (E-score (dimensionless, -0.5 to 0.5)); higher = stronger relative binding preference
The full ranking holds about 33,000 sequences; the median of “E-score (dimensionless, -0.5 to 0.5)” is about -0.058, and the highest 2% start at about 0.35. Shown is part of a subset that was picked to be rich in the highest values.
Please use the following PBM 8-mer E-score ranges when assigning a class: bin A: < -0.05; bin B: ≥ -0.05 and < 0.3; bin C: ≥ 0.3

entry_sequence=GTCAATTA discrete_label="bin B"
entry_sequence=ACAACAAG discrete_label="bin B"
entry_sequence=TAAGTTAA discrete_label="bin C"
entry_sequence=AGGGAGAG discrete_label="bin A"

Bin this entry: ATAAGTAA
bin C
